assay_explanation: Pharmacokinetics in male SD rats (oral and i.v., various formulations)
Type: in vivo, rat
experimental_setup: male, SD, plasma, 200 mg/kg; rat, 200 mpk po, Formulation Example 2; read-out: t½ (converted)
quantity_kind: half-life (min)
Express the result in min but write the number alone.

The molecule COc1ccc(-c2cc(=O)c3c(O)c(OC)c(OCCN4CCNC(=O)C4)cc3o2)cc1OC showed half-life equal to 90

====

assay_explanation: Pharmacokinetics in male SD rats (oral and i.v., various formulations)
Assay type: in vivo, rat
experimental_setup: male, SD, rat, plasma, po, 10 mg/kg, 10 mpk po, Formulation Example 5 (30% (w/v) HPCD aqueous solution)
quantity_kind: Cmax (ng/mL)
Express the result in ng/mL but write the number alone.

The compound COc1ccc(-c2cc(=O)c3c(O)c(OC)c(OCCN4CCNC(=O)C4)cc3o2)cc1OC showed Cmax equal to 393

====

assay_explanation: Pharmacokinetics in male SD rats (oral and i.v., various formulations)
Assay type: in vivo, rat
experimental_setup: male, SD, rat, plasma, po, 10 mg/kg, rat, 10 mpk po, Formulation Example 2; in Tween80:0.5% CMC aqueous vehicle; read-out: AUC(0-t)
quantity_kind: AUC(0-t)

The molecule COc1ccc(-c2cc(=O)c3c(O)c(OC)c(OCCN4CCNC(=O)C4)cc3o2)cc1OC showed AUC(0-t) equal to 20.4 ng·h/mL

====

assay_explanation: Pharmacokinetics in male SD rats (oral and i.v., various formulations)
Assay type: in vivo, rat
experimental_setup: male, SD, rat, plasma, po, 200 mg/kg, 200 mpk po, Formulation Example 2
quantity_kind: AUC(0-inf)
The answer consists of two parts: a number and, after it, its unit.

The molecule COc1ccc(-c2cc(=O)c3c(O)c(OC)c(OCCN4CCNC(=O)C4)cc3o2)cc1OC [Compound 1] showed AUC(0-inf) equal to 426 ng·h/mL

====

assay_explanation: Pharmacokinetics in male SD rats (oral and i.v., various formulations)
Assay type: in vivo, rat
experimental_setup: male, SD, rat, plasma, po, 10 mg/kg, 10 mpk po, Formulation Example 2
quantity_kind: bioavailability (%)
Express the result in % but write the number alone.

The compound COc1ccc(-c2cc(=O)c3c(O)c(OC)c(OCCN4CCNC(=O)C4)cc3o2)cc1OC [Compound 1] showed bioavailability equal to 1.4

====

assay_explanation: Pharmacokinetics in male SD rats (oral and i.v., various formulations)
Assay type: in vivo, rat
experimental_setup: male, SD, rat, plasma, po, 200 mg/kg, rat, 200 mpk po, Formulation Example 2 (Tween80: 0.5% CMC 1:99)
quantity_kind: Cmax (ng/mL)
Express the result in ng/mL but write the number alone.

The molecule COc1ccc(-c2cc(=O)c3c(O)c(OC)c(OCCN4CCNC(=O)C4)cc3o2)cc1OC [Compound 1] showed Cmax equal to 261

====

assay_explanation: Pharmacokinetics in male SD rats (oral and i.v., various formulations)
Assay type: in vivo, rat
experimental_setup: male, SD, plasma, 10 mg/kg; rat, 10 mpk po, Formulation Example 5; read-out: t1/2 (converted)
quantity_kind: half-life (h)
Express the result in h but write the number alone.

The compound COc1ccc(-c2cc(=O)c3c(O)c(OC)c(OCCN4CCNC(=O)C4)cc3o2)cc1OC [Compound 1] showed half-life equal to 1.9
